# experimental-system: A1 receptors (Rattus norvegicus)
# Sequence (P25099 whole entry): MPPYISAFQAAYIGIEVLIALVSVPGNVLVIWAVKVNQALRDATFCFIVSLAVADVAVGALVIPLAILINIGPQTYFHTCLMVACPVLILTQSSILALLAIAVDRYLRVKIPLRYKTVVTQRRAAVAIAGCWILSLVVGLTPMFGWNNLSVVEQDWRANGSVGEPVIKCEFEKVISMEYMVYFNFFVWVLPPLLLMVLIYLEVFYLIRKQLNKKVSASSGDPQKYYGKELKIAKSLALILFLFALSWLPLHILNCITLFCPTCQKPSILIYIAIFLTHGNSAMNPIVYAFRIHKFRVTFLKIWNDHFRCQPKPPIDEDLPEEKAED
# run-description: biochemical
# Type: binding
# protocol-conditions: Table 11; [3H]PIA, rat brain membranes; read-out: Ki rA1
attribute-measured: Ki (µM)
Numeric answer only, unit µM assumed.

Asked: Given `CCOC(=O)c1c(C)nc(-c2ccccc2)c(C(=O)OCc2ccccc2)c1C#Cc1ccccc1` , report its Ki on A1 receptors (Rattus norvegicus).
Given back: 7.01

----------
# experimental-system: A2a receptors (Rattus norvegicus, UniProt P30543)
# Construct: Displacement of specific [^3 H]; from tissue; host or cells: rat striatal membranes
# Sequence (P30543 whole entry): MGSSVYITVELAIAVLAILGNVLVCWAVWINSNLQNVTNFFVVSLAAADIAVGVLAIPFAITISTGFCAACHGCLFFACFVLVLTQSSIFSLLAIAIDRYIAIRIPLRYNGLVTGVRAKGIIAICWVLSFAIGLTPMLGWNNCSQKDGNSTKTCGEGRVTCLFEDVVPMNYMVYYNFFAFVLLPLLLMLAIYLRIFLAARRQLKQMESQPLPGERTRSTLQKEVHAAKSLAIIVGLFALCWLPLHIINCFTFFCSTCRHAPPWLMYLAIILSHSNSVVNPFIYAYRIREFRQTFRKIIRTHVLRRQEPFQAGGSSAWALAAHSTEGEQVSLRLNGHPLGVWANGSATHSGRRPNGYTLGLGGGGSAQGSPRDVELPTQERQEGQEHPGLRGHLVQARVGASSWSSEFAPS
# run-description: radioligand binding, displacement of specific [3H]CGS 21680 binding in rat striatal membranes
# protocol-conditions: Table 12; [3H]CGS 21680, rat striatal membranes; read-out: Ki rA2A
attribute-measured: Ki (µM)
Number only, in µM; omit the unit.

CCOC(=O)C1=C(c2ccccc2)NC(C)=C(C(=O)SCC)C1C#Cc1ccccc1 (centres unmarked) [Compound 130b]
5.15

# next molecule below
Asked: Provide measured Ki value, entry: CCOC(=O)C1=C(C)NC(c2ccccc2)=C(C(=O)OCC)C1c1ccncc1 (racemic)
Given back: 44.7
